molecular target: VHL/EloB/EloC (VBC) (Homo sapiens); construct: VHL (54-213), ElonginB (17-112) ElonginC (1-104); made in house; experiment: SPR binary binding of PROTAC to VBC-functionalized surface; conditions: SPR; error SEM, N = 3; read-out: KLP (binary binding affinity between E3 ligase VHL and PROTAC)
Sequence (Q15369 17-112): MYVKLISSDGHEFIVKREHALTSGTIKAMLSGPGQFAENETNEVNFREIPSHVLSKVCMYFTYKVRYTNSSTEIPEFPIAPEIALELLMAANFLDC
Sequence (Q15370 1-104, further chain): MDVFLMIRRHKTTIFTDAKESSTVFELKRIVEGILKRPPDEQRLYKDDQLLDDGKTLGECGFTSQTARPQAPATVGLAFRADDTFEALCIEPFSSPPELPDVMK
Sequence (P40337 54-213): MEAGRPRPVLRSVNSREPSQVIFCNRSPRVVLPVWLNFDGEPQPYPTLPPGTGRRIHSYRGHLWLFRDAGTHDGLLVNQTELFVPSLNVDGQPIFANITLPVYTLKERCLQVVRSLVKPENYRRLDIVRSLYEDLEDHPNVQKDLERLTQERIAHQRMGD
PROPERTY: Kd (µM)

Check out these entries, answers already filled in.
Cc1ncsc1-c1ccc([C@H](C)NC(=O)[C@@H]2C[C@@H](O)CN2C(=O)[C@@H](NC(=O)c2cccc(N3CCN(c4nc(-c5ccccc5O)nnc4N)CC3)n2)C(C)(C)C)cc1 = 0.025
Cc1ncsc1-c1ccc(CNC(=O)C2C[C@@H](O)CN2C(=O)C(NC(=O)C2(F)CC2)C(C)(C)C)c(OCCc2ccc(CN3CCN(c4cc(-c5ccccc5O)nnc4N)CC3)cc2)c1 (stereo in doubt) [Compound 11, reference compound] = 0.059
Cc1ncsc1-c1ccc(CNC(=O)[C@@H]2C[C@@H](O)CN2C(=O)[C@@H](NC(=O)COCCOCCOCCOCc2cn(CCNC(=O)C[C@@H]3N=C(c4ccc(Cl)cc4)c4c(sc(C)c4C)-n4c(C)nnc43)nn2)C(C)(C)C)cc1 = 0.031
Cc1ncsc1-c1ccc([C@H](C)NC(=O)[C@@H]2C[C@@H](O)CN2C(=O)[C@@H](NC(=O)Cc2ccnc(N3CCN(c4cc(-c5ccccc5O)nnc4N)CC3)c2)C(C)(C)C)cc1 = 0.009
Cc1ncsc1-c1ccc(CNC(=O)[C@@H]2C[C@@H](O)CN2C(=O)[C@@H](NC(=O)COCCOCCOCc2cn(CCNC(=O)C[C@@H]3N=C(c4ccc(Cl)cc4)c4c(sc(C)c4C)-n4c(C)nnc43)nn2)C(C)(C)C)cc1 = 0.026

[A] Cc1ncsc1-c1ccc(CNC(=O)[C@@H]2C[C@@H](O)CN2C(=O)[C@@H](NC(=O)COCc2cn(CCNC(=O)C[C@@H]3N=C(c4ccc(Cl)cc4)c4c(sc(C)c4C)-n4c(C)nnc43)nn2)C(C)(C)C)cc1
[B] Cc1ncsc1-c1ccc([C@H](C)NC(=O)[C@@H]2C[C@@H](O)CN2C(=O)[C@@H](NC(=O)c2ccnc(N3CCN(c4cc(-c5ccccc5O)nnc4N)CC3)c2)C(C)(C)C)cc1
[C] Cc1ncsc1-c1ccc([C@H](C)NC(=O)[C@@H]2C[C@@H](O)CN2C(=O)[C@@H](NC(=O)c2cccc(N3CCN(c4cc(-c5ccccc5O)nnc4N)CC3)n2)C(C)(C)C)cc1
[D] Cc1ncsc1-c1ccc([C@H](C)NC(=O)[C@@H]2C[C@@H](O)CN2C(=O)[C@@H](NC(=O)CCc2ccnc(N3CCN(c4cc(-c5ccccc5O)nnc4N)CC3)c2)C(C)(C)C)cc1
Incoming: Please order the records by their reported Kd, lowest number first. // respond by listing labels in the order requested
Outgoing: D, A, B, C

* * *

target: SMARCA2-NanoLuc (Homo sapiens); construct: expressed in transfected cells; host or cells: HEK293; experiment: NanoBRET target engagement assay, live and permeabilized HEK293 cells (SMARCA2); format: cell-based; conditions: permeabilized HEK293 cells, SMARCA2 NanoBRET TE; read-out: Permeabilized-Cell TE IC50
Sequence (P51531 whole entry): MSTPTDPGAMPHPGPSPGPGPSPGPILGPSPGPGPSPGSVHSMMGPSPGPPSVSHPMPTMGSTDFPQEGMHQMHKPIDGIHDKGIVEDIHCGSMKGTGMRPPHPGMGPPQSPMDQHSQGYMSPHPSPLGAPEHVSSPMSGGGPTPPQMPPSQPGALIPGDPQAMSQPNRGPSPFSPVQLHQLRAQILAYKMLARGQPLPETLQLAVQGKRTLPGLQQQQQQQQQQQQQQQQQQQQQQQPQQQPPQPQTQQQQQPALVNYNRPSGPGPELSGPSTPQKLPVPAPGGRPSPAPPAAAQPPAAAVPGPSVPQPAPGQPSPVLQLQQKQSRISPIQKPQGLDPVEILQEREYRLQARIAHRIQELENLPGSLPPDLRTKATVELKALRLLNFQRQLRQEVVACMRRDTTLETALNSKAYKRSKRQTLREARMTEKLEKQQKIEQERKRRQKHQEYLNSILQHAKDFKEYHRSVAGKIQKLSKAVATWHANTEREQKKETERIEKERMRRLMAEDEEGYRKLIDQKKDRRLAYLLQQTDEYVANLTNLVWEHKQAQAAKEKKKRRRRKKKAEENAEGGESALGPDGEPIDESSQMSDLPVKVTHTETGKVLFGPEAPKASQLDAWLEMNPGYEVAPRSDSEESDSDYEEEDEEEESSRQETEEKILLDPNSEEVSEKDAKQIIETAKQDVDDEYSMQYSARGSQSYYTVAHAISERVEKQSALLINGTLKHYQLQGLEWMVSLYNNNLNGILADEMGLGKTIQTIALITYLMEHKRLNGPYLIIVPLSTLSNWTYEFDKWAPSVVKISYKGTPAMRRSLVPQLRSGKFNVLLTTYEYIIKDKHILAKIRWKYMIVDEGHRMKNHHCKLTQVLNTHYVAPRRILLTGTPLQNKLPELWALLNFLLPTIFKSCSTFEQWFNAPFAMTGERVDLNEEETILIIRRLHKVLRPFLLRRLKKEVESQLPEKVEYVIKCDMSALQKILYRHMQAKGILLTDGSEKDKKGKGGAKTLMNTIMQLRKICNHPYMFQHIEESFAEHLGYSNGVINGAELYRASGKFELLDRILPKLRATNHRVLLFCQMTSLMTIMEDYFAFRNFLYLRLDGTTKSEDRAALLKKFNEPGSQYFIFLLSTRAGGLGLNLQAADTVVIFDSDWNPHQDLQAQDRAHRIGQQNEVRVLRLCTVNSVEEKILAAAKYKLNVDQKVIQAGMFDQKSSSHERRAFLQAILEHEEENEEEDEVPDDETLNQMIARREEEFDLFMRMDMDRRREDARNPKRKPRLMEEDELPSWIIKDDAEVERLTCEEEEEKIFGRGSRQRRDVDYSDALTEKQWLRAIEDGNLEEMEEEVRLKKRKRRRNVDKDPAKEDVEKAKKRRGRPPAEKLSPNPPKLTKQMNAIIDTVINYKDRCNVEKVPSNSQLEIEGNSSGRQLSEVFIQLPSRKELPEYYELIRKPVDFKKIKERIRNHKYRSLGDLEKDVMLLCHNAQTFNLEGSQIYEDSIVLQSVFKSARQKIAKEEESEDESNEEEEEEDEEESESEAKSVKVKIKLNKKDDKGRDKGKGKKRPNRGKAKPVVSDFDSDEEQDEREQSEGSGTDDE
PROPERTY: IC50 (nM)

Check out these entries, answers already filled in.
Cc1ncsc1-c1ccc([C@H](C)NC(=O)[C@@H]2C[C@@H](O)CN2C(=O)[C@@H](NC(=O)c2ccnc(N3CCN(c4cc(-c5ccccc5O)nnc4N)CC3)c2)C(C)(C)C)cc1 = 150
Cc1ncsc1-c1ccc([C@H](C)NC(=O)[C@@H]2C[C@@H](O)CN2C(=O)[C@@H](NC(=O)Cc2ccnc(N3CCN(c4cc(-c5ccccc5O)nnc4N)CC3)c2)C(C)(C)C)cc1 = 210

[I] Cc1ncsc1-c1ccc([C@H](C)NC(=O)[C@@H]2C[C@@H](O)CN2C(=O)[C@@H](NC(=O)c2csc(N3CCN(c4cc(-c5ccccc5O)nnc4N)CC3)n2)C(C)(C)C)cc1
[II] Cc1ncsc1-c1ccc([C@H](C)NC(=O)[C@@H]2C[C@@H](O)CN2C(=O)[C@@H](NC(=O)c2cccc(N3CCN(c4cc(-c5ccccc5O)nnc4N)CC3)n2)C(C)(C)C)cc1
[III] Cc1ncsc1-c1ccc(CNC(=O)C2C[C@@H](O)CN2C(=O)C(NC(=O)C2(F)CC2)C(C)(C)C)c(OCCc2ccc(CN3CCN(c4cc(-c5ccccc5O)nnc4N)CC3)cc2)c1 (stereo in doubt) [Compound 11, reference compound]
[IV] Cc1ncsc1-c1ccc([C@H](C)NC(=O)[C@@H]2C[C@@H](O)CN2C(=O)[C@@H](NC(=O)CN2CCN(c3cc(-c4ccccc4O)nnc3N)CC2)C(C)(C)C)cc1 [Compound 6, reference compound]
Incoming: Place the items in sequence of falling IC50. // respond by listing labels in the order requested
Outgoing: III, I, II, IV
(III: 740 nM, I: 400 nM, II: 200 nM, IV: 90 nM)

* * *

biological target: SMARCA2 (Homo sapiens, UniProt P51531); construct: endogenous in cells; host or cells: A375; experiment: SMARCA2 degradation, MSD assay, dose response; type: cell-based; conditions: SMARCA2 degradation, MSD assay, A375 cells, 2 h timepoint
Sequence (P51531 whole entry): as above
PROPERTY: DC50 (nM)

Cc1ncsc1-c1ccc([C@H](C)NC(=O)[C@@H]2C[C@@H](O)CN2C(=O)[C@@H](NC(=O)c2cccc(N3CCN(c4cc(-c5ccccc5O)nnc4N)CC3)c2)C(C)(C)C)cc1 [Compound 4] = 99

[I] Cc1ncsc1-c1ccc([C@H](C)NC(=O)[C@@H]2C[C@@H](O)CN2C(=O)[C@@H](NC(=O)c2csc(N3CCN(c4cc(-c5ccccc5O)nnc4N)CC3)n2)C(C)(C)C)cc1 [Compound 5]
[II] Cc1ncsc1-c1ccc([C@H](C)NC(=O)[C@@H]2C[C@@H](O)CN2C(=O)[C@@H](NC(=O)c2ccnc(N3CCN(c4cnnc(-c5ccccc5O)c4)CC3)c2)C(C)(C)C)cc1 [Compound 10]
Incoming: Of the two listed items, I and II , which carries the larger DC50 figure? In your reply, give the label of the chosen option.
Outgoing: II

* * *

target: SMARCA2 (Homo sapiens, UniProt P51531); construct: endogenous in cells; host or cells: A375; experiment: SMARCA2 degradation time course in A375 cells (MSD); type: cell-based; settings: single concentration at or near maximal activity
PROPERTY: Initial Degradation Rate (%/min)

Cc1ncsc1-c1ccc([C@H](C)NC(=O)[C@@H]2C[C@@H](O)CN2C(=O)[C@@H](NC(=O)c2ccnc(N3CCN(c4cc(-c5ccccc5O)nnc4N)CC3)c2)C(C)(C)C)cc1 [Compound 1] = 1.9

[1] Cc1ncsc1-c1ccc([C@H](C)NC(=O)[C@@H]2C[C@@H](O)CN2C(=O)[C@@H](NC(=O)c2cccc(N3CCN(c4cc(-c5ccccc5O)nnc4N)CC3)n2)C(C)(C)C)cc1 [Compound 2]
[2] Cc1ncsc1-c1ccc([C@H](C)NC(=O)[C@@H]2C[C@@H](O)CN2C(=O)[C@@H](NC(=O)c2cccc(N3CCN(c4nc(-c5ccccc5O)nnc4N)CC3)n2)C(C)(C)C)cc1 [Compound 9]
[3] Cc1ncsc1-c1ccc(CNC(=O)C2C[C@@H](O)CN2C(=O)C(NC(=O)C2(F)CC2)C(C)(C)C)c(OCCc2ccc(CN3CCN(c4cc(-c5ccccc5O)nnc4N)CC3)cc2)c1 (stereo in doubt) [Compound 11, reference compound]
Incoming: Please order the records by their reported Initial Degradation Rate, lowest number first. // respond by listing labels in the order requested
Outgoing: 3, 2, 1
